Tested Target: T1, soluble Homo sapiens CD131 comprising a C-terminal 6xHis tag (human, UniProt P32927 17-438)
T1 construct: truncated after Ser438, C-terminal 6xHis; also called shCD131; shβc
T1 sequence: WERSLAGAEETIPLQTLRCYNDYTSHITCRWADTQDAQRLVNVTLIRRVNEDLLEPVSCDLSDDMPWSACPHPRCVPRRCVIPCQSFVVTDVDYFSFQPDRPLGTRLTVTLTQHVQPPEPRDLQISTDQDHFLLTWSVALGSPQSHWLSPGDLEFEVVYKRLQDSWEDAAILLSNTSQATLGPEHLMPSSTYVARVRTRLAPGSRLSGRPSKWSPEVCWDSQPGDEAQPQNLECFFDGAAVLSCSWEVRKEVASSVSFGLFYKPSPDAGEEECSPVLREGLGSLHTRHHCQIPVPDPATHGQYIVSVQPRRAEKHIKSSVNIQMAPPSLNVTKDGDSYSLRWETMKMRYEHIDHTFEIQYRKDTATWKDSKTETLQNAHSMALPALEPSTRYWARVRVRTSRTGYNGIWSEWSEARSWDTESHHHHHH
Assay Explanation: SPR, Fab over captured shCD131
Please provide measured kon for the entries that follow.
Return type: number; implicit unit M⁻¹ s⁻¹.

// kon value for 9A2-VR39.93 Fab (Fab, V domains shown, recombinant Fab) VH: EVQLLESGGGLVQPGGSLRLSCAASGFTFSHYHMLWVRQAPGKGLEWVSSINGRGRVTYYNPAWKKRFTISRDNSKNTLYLQMNSLRAEDTAVYYCARFYDSFFDIWGQGTMVTVSS VL: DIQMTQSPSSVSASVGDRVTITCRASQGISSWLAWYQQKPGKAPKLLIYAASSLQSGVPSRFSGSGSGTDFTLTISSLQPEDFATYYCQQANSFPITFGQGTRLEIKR : 4.15e+06

What the record says about 9A2-VR39.17 Fab (Fab, V domains shown, recombinant Fab) VH: EVQLLESGGGLVQPGGSLRLSCAASGFTFPFYHKVWVRQAPGKGLEWVSSINGRGRVTYYADSVKGRFTISRDNSKNTLYLQMNSLRAEDTAVYYCARFYDSFFDIWGQGTMVTVSS VL: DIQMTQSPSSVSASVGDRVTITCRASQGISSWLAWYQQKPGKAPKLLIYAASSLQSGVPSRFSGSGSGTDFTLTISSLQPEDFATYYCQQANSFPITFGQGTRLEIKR : kon is 2.81e+06

Please fill in: kon reported for 9A2-VR24.56 Fab (Fab, V domains shown, recombinant Fab) VH: EVQLLESGGGLVQPGGSLRLSCAASGFTFPWYRVHWVRQAPGKGLEWVSSIRSSGGFTYYNPAVRGRFTISRDNSKNTLYLQMNSLRAEDTAVYYCARFYDSFFDIWGQGTMVTVSS VL: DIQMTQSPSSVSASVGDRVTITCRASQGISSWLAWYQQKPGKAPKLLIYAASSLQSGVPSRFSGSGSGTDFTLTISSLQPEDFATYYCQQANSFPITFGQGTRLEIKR = 2.82e+06

The reported kon of the binder 9A2-VR24.84 Fab (Fab, V domains shown, recombinant Fab) VH: EVQLLESGGGLVQPGGSLRLSCAASGFTFPWYRVHWVRQAPGKGLEWVSSIHTHRPWTYYADSVKGRFTISRDNSKNTLYLQMNSLRAEDTAVYYCARFYDSFFDIWGQGTMVTVSS VL: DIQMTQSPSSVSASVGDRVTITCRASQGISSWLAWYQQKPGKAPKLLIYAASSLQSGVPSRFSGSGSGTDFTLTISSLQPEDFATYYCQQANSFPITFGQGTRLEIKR was 3.95e+06

Please fill in: kon reported for 9A2-VR24.33 Fab (Fab, V domains shown, recombinant Fab) VH: EVQLLESGGGLVQPGGSLRLSCAASGFTFPWYRVHWVRQAPGKGLEWVSSIRSSGGFPYYNHKVKGRFTISRDNSKNTLYLQMNSLRAEDTAVYYCARFYDSFFDIWGQGTMVTVSS VL: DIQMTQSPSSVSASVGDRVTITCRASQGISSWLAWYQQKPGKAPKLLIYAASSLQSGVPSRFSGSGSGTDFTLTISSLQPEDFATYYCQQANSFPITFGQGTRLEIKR = 3.16e+06

The measurements presented in this section are drawn from patent US20190062438A1.
